sequences and their reported PBM binding z-score
# Tested on: PPARg:RXRa (NR concentration 180 nM, RXRa partner concentration 90 nM)
# PROCEDURE_SUMMARY: PBM binding z-score (relative to random genomic background probes); higher = stronger binding; sequences stand for … in GC…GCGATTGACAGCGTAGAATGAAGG
Please give only the number in your answer, with no unit.

Sample answers from the record:
In [3]: df
Out[3]:
                       residue_string  value_measured
0  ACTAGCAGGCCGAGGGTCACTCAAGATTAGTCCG            3.61
1  TCTTGAAGATCAACAGGAGGTTAAGAAAGATCGA         -0.0399
2  ATCTCTAGGTAACAAATTCAGTGAAAGAGAGGAC           0.558
3  GGCACGAGGGCAAAGTTGATAGCATCTGTCGACG            6.13

// query Which measured PBM binding z-score belongs to `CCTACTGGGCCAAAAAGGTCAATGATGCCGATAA` , tested on PPARg:RXRa (NR concentration 180 nM, RXRa partner concentration 90 nM)?
// result 3.36

// query Which measured PBM binding z-score belongs to `ATATGTAGGTTAAGGGACATTCAGGTTGGTTCGC` , tested on PPARg:RXRa (NR concentration 180 nM, RXRa partner concentration 90 nM)?
// result 6.5

// query Which measured PBM binding z-score belongs to `CCTAGTTGGTCAAGGTCACAAACGCTATAGGTAC` , tested on PPARg:RXRa (NR concentration 180 nM, RXRa partner concentration 90 nM)?
// result 3.16

// query Which measured PBM binding z-score belongs to `CCTCGGAGGACAACAGGAGGTCTGAGCTGCCAGA` , tested on PPARg:RXRa (NR concentration 180 nM, RXRa partner concentration 90 nM)?
// result -0.138

// query Which measured PBM binding z-score belongs to `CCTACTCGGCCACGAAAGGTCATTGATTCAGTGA` , tested on PPARg:RXRa (NR concentration 180 nM, RXRa partner concentration 90 nM)?
// result 1.93

// query Which measured PBM binding z-score belongs to `AGATGTAGGTTACATCCGGGTCATTCAGGCTATG` , tested on PPARg:RXRa (NR concentration 180 nM, RXRa partner concentration 90 nM)?
// result 5.05

// query Which measured PBM binding z-score belongs to `CCTATCAGGCCAATCTGGGTCACTCAAGGCTTGA` , tested on PPARg:RXRa (NR concentration 180 nM, RXRa partner concentration 90 nM)?
// result 2.26

// query Which measured PBM binding z-score belongs to `TCTGCTAGGTCAGTTGGTCATCTAACGAGCTGCC` , tested on PPARg:RXRa (NR concentration 180 nM, RXRa partner concentration 90 nM)?
// result 0.954

Every entry's value here was drawn from the supplement of paper PMC6555819.
